The measured values listed here are drawn from the Human Domainome abundance scans (Beltran et al. 2025).

B1: Storkhead-box protein 2, residues 64 to 141; numbered along this chain, Q9P2F5 (parent)
chain: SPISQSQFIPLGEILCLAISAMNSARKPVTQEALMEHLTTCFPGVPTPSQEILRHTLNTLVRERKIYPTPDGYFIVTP

variants of: B1; test: abundance fitness (aPCA) (normalised: wild type 0, dead -1); higher = more abundant; growth selection in yeast, the domain comes from the species named; details: Homo sapiens
Entry class follows abundance fitness: low group: < -0.2; middle group: ≥ -0.2 and < -0.06; high group: ≥ -0.06

Determine which band this variant sits in: L11W
low group

Determine which band this variant sits in: H37Y
middle group

Determine which band this variant sits in: T77R
high group

Determine which band this variant sits in: M22D
low group

Determine which band this variant sits in: V61L
high group

Determine which band this variant sits in: H55L
middle group

Determine which band this variant sits in: V45C
high group

Determine which band this variant sits in: P43W
low group

Determine which band this variant sits in: I3C
middle group

Determine which band this variant sits in: T40S
high group

Determine which band this variant sits in: L60H
low group

Determine which band this variant sits in: P43D
middle group

Determine which band this variant sits in: M35R
middle group

Determine which band this variant sits in: L15R
low group

Determine which band this variant sits in: L53T
high group

Determine which band this variant sits in: E32M
middle group

Determine which band this variant sits in: L53K
low group

Determine which band this variant sits in: P48L
low group

Determine which band this variant sits in: D71R
middle group

Determine which band this variant sits in: I14T
high group

Determine which band this variant sits in: N23C
low group

Determine which band this variant sits in: A18C
high group

Determine which band this variant sits in: G44P
middle group
